Reported inhibition is given for each of the following compounds.
test system: Proto-oncogene tyrosine-protein kinase receptor Ret (Homo sapiens), P07949 [V804L]; details: at 0.1 µM
Sequence (P07949 whole entry V804L): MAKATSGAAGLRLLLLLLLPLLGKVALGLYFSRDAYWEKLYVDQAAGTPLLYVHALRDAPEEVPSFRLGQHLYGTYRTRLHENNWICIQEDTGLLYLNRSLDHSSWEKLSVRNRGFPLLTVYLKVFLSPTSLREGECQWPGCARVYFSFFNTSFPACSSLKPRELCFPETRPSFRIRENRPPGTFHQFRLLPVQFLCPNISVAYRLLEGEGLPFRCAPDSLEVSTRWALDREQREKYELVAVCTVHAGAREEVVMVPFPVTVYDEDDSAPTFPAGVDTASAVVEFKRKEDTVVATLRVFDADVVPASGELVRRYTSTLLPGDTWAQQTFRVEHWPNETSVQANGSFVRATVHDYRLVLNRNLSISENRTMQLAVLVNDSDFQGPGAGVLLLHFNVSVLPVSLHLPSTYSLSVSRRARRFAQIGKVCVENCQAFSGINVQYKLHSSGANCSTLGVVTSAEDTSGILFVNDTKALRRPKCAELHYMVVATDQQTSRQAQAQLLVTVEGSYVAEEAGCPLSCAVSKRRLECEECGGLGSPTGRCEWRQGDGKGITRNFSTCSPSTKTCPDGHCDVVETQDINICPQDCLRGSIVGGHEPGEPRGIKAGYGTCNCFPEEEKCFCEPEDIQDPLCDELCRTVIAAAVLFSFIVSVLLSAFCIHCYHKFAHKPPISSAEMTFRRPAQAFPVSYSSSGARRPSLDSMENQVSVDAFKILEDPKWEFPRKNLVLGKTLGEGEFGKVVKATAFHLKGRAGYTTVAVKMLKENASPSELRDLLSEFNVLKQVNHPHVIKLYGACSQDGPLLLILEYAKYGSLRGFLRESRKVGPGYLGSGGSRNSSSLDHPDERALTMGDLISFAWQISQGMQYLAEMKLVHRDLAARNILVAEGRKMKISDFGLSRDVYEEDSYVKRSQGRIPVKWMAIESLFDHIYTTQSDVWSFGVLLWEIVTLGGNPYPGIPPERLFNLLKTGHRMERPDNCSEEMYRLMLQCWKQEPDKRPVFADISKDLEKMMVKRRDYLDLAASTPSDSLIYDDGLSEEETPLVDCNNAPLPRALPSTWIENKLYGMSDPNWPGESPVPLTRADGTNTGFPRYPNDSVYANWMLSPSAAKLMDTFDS
Give just the number in %; leave the unit off.

>>> print(df.to_string())
                            smiles_notation  unit_string  obs_value
0  CCCNc1cccc(-n2ncc3c(N/N=C/c4ccncc4)ncnc32)c1            %       7.89
1  CCS(=O)(=O)c1ccc(OC)c(Nc2ncc(-c3cccc(F)c3)o2)c1            %       7.78
2    c1cnn2ncc(-c3ccnc(NCCCN4CCOCC4)n3)c2c1            %       2.98

Entry under review: `O=C(O[C@H]1CN[C@H](C#Cc2cc3ncnc(Nc4ccc(OCc5cccc(F)c5)c(Cl)c4)c3s2)C1)N1CCOCC1` . Reported inhibition?
2.92
